Entry source: patent EP3222712A1

Reported relative activity values follow for various compounds
# TESTED TARGET: UniProt C4R4L0
# Sequence (C4R4L0 entry or part of it): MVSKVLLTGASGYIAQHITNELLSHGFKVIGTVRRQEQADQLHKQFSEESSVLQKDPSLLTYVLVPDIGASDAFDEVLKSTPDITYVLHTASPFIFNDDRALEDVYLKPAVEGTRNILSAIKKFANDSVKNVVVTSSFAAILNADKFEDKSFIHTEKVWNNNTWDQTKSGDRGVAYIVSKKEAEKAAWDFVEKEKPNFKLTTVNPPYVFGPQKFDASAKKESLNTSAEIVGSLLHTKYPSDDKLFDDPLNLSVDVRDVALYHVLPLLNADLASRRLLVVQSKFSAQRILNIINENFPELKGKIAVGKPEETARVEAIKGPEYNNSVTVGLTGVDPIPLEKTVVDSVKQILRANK
# ASSAY EXPLANATION: photometric assay, oxidation of alcohols by purified PPADH (NADP+, 340 nm)
# Format: biochemical, Pichia pastoris GS 115
# CONDITION: 6.6 U/mg set to 100%
ENDPOINT NAME: relative activity (%)

- COMPOUND: "C=CCC[C@H](C)O"
  TESTED TARGET: "UniProt C4R4L0"
  ENDPOINT NAME: "relative activity"
  NUMERIC VALUE: 57.4
- COMPOUND: "C[C@@H](CO)c1ccccc1"
  TESTED TARGET: "UniProt C4R4L0"
  ENDPOINT NAME: "relative activity"
  NUMERIC VALUE: 16.0
- COMPOUND: "CCCCCCC(C)O (stereo not shown)"
  TESTED TARGET: "UniProt C4R4L0"
  ENDPOINT NAME: "relative activity"
  NUMERIC VALUE: 8.7
- COMPOUND: "CCCC(C)O (stereo not shown)"
  TESTED TARGET: "UniProt C4R4L0"
  ENDPOINT NAME: "relative activity"
  NUMERIC VALUE: 38.3
- COMPOUND: "CCCCC(C)O (stereo not shown)"
  TESTED TARGET: "UniProt C4R4L0"
  ENDPOINT NAME: "relative activity"
  NUMERIC VALUE: 54.9
- COMPOUND: "CC(C)=CCCC(C)=CCO [compound 28]"
  TESTED TARGET: "UniProt C4R4L0"
  ENDPOINT NAME: "relative activity"
  NUMERIC VALUE: 18.0
- COMPOUND: "CC(C)=CCCC(C)=CCO [compound 27]"
  TESTED TARGET: "UniProt C4R4L0"
  ENDPOINT NAME: "relative activity"
  NUMERIC VALUE: 32.7
- COMPOUND: "CCCCO"
  TESTED TARGET: "UniProt C4R4L0"
  ENDPOINT NAME: "relative activity"
  NUMERIC VALUE: 16.7
- COMPOUND: "CCCC(C)CO (stereo not shown)"
  TESTED TARGET: "UniProt C4R4L0"
  ENDPOINT NAME: "relative activity"
  NUMERIC VALUE: 30.9
- COMPOUND: "CCCCC[C@H](C)O"
  TESTED TARGET: "UniProt C4R4L0"
  ENDPOINT NAME: "relative activity"
  NUMERIC VALUE: 31.6
- COMPOUND: "OCCc1ccccc1Br"
  TESTED TARGET: "UniProt C4R4L0"
  ENDPOINT NAME: "relative activity"
  NUMERIC VALUE: 29.3
- COMPOUND: "C/C=C/C(C)O (stereo not shown)"
  TESTED TARGET: "UniProt C4R4L0"
  ENDPOINT NAME: "relative activity"
  NUMERIC VALUE: 19.5
- COMPOUND: "CCCC[C@H](C)O"
  TESTED TARGET: "UniProt C4R4L0"
  ENDPOINT NAME: "relative activity"
  NUMERIC VALUE: 100.0
